Value source: ChEMBL document CHEMBL2424622

# experimental system: Mitogen-activated protein kinase 9 (Homo sapiens)
# Sequence (P45984 whole entry): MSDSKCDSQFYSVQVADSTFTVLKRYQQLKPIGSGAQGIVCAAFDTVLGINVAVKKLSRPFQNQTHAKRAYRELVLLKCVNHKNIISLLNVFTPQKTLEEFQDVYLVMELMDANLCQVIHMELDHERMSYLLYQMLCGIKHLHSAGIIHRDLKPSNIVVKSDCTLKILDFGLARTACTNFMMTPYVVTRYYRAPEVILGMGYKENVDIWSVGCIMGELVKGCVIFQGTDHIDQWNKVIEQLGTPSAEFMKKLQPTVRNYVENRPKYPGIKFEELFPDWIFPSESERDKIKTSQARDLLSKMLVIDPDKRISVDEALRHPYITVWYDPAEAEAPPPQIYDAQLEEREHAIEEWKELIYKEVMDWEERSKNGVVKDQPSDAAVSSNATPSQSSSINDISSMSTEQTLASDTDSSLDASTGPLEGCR
measured attribute: IC50 (nM)

Worked cases, answers included:
smiles notation | measured attribute | reported measurement
CCN(CC)C(=O)[C@H]1CC[C@H](Nc2nccc(-n3ccc4c(OCCCS(C)(=O)=O)cccc43)n2)CC1 | IC50 | 57
N[C@H]1CC[C@H](Nc2nccc(-n3nnc4ccccc43)n2)CC1 | IC50 | 170
O[C@H]1CC[C@H](Nc2nccc(-n3nnc4ccccc43)n2)CC1 | IC50 | 110

(1) CS(=O)(=O)CCOc1cccc2c1cnn2-c1ccnc(N[C@H]2CC[C@H](O)CC2)n1
(2) CS(=O)(=O)CCCOc1cccc2c1ccn2-c1ccnc(N[C@H]2CC[C@H](C(=O)N3CC[C@@H](O)C3)CC2)n1
Query block: Short answer wanted: higher IC50, 1 or 2 ? Which one? Tell me its label.
Result block: 1
